assay: Lipophilicity, log P of the compound; conditions: octanol/water, logP
For each of the compounds below, state its logP.
Please state the value as a number alone, without comment.

Quote logP reported for NNC(=O)c1ccsc1 please. -1.2

Quote logP reported for NNC(=O)C(O)(c1ccccc1)c1ccccc1 please. 0.196

Quote logP reported for C=Cc1cc(C(=O)NN)ccn1 please. -1.69

Quote logP reported for NNC(=O)c1cccc(N)c1 please. -2.07

Quote logP reported for NNC(=O)c1ccnc(I)c1 please. -1.2

Quote logP reported for O=C(NN=C1CCCCC1)c1cccs1 please. 0.789

Quote logP reported for O=CNNC(=O)c1ccncc1 please. -2.99

Quote logP reported for CCn1cc(C(=O)O)c(=O)c2cc(F)c(N3CCN(Cc4cccc(/C(C)=N/NC(=O)c5ccncc5)c4O)C(C)C3)c(F)c21 (centres undefined) please. 4.81

Quote logP reported for CC(C)(C#N)NNC(=O)c1ccco1 please. 1.21

Ref: ChEMBL document CHEMBL3091347
